Experiment: Human HepG2 cell viability assay in 384 well format
Assay type: toxicity, cell-based
Parameters: dose 125 nL, time 70.5 hour; concentration not given beside the values
Conditions: HepG2 cells, read-out: Inhibition
ENDPOINT: cytotoxicity at 70.5 h (%)
Give your result in % as a bare value.

Known results for compounds:
Cn1cccc1C(=O)N1CC[C@H]2[C@@H]1CCC(=O)N2CC1CC1    3.01
CS(=O)(=O)N[C@@H]1CCN(Cc2cccs2)[C@H]1Cc1cccnc1    -18.1
CC(Cn1ccnc1)NC(=O)N1CCN(Cc2ccncc2)CC1 (stereo not drawn)    -2.15
CCCc1nc(C(=O)N[C@H]2COC[C@@H]2N2CCN(C)CC2)cs1    -7.8
CC(=O)Nc1nc(C(=O)NCc2ccc(N3CCCCC3)cc2)cs1    -3.91

For the compound `CN(CCCNC(=O)Nc1ccc(C#N)cc1)CC(F)(F)F` , what cytotoxicity at 70.5 h is on record?
40.9

For the compound `O=C(c1cccc(F)c1)N1CCc2ncc(Cn3cccn3)n2CC1` , what cytotoxicity at 70.5 h is on record?
-11

For the compound Cc1cn2c(n1)CCC(NC(=O)CCC(F)(F)F)C2 (stereo not drawn) , what cytotoxicity at 70.5 h is on record?
-3.72
